target: human MAGL (His-hMAGL) (Homo sapiens); construct: made in house; host or cells: Escherichia coli BL21(DE3); test: Measurement of MAGL inhibitory activity by mass spectrometry; type: biochemical; conditions: 10 μM test compound; substrate 2-arachidonylglycerol, arachidonic acid by RapidFire-mass spectrometry
Listed below: inhibition at 10 µM values for each entry.
Your answer should be a plain number; it is taken to be in %.

molecule="Cn1nc(C(F)(F)F)cc1-c1cccc(N2CC(N3CCN(C(=O)c4nccs4)CC3)CC2=O)c1 (centres unmarked)" parameter="inhibition at 10 µM" unit_spec=% observed_measurement=99
molecule="Cc1ncccc1-c1cccc(N2CC(N3CCN(C(=O)c4ncco4)CC3)CC2=O)c1 (centres unmarked)" parameter="inhibition at 10 µM" unit_spec=% observed_measurement=94
molecule="O=C(c1nccs1)N1CCN(C2CC(=O)N(c3ccc4c(ccn4-c4ccnc(C(F)(F)F)c4)c3)C2)CC1 (centres unmarked)" parameter="inhibition at 10 µM" unit_spec=% observed_measurement=100

Given Cc1cccc(C#N)c1-c1cccc(N2CC(N3CCN(C(=O)c4nccs4)CC3)CC2=O)c1 (centres unmarked) , state its recorded inhibition at 10 µM.
101

Given N#Cc1ccccc1-c1cccc(N2CC(N3CCN(C(=O)c4nccs4)CC3)CC2=O)c1 (centres unmarked) , state its recorded inhibition at 10 µM.
100

Given Cn1nccc1-c1cccc(N2CC(N3CCN(C(=O)c4nccs4)CC3)CC2=O)c1 (centres unmarked) , state its recorded inhibition at 10 µM.
99

Given O=C(c1ncco1)N1CCN(C2CC(=O)N(c3cccc(-c4ccccc4Cl)c3)C2)CC1 (centres unmarked) , state its recorded inhibition at 10 µM.
99

Given O=C(c1nccs1)N1CCN(C2CC(=O)N(c3cccc(-c4cccs4)c3)C2)CC1 (centres unmarked) , state its recorded inhibition at 10 µM.
101

---

molecular target: human MAGL (His-hMAGL) (Homo sapiens, UniProt Q99685); construct: made in house; host or cells: Escherichia coli BL21(DE3); test: Measurement of MAGL inhibitory activity by mass spectrometry; assay type: biochemical; settings: MAGL inhibitory rate, test compound 10 μM, His-hMAGL, substrate 2-arachidonylglycerol, RapidFire-mass spectrometry
Sequence (Q99685 whole entry): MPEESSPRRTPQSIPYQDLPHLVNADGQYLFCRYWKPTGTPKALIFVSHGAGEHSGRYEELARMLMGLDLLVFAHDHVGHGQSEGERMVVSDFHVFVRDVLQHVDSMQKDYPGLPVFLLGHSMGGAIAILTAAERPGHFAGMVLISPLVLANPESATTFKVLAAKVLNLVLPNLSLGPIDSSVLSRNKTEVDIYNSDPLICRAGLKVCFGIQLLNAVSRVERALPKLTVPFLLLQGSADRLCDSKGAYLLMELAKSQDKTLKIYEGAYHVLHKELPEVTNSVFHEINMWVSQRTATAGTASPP
parameter: inhibition at 10 µM (%)
Your answer should be a plain number; it is taken to be in %.

compound="O=C(O)c1cccc(-c2cccc(N3CC(N4CCN(C(=O)c5nccs5)CC4)CC3=O)c2)c1 (centres unmarked)" unit_spec=% observed_measurement=98
compound="O=C(c1nccs1)N1CCN(C2CC(=O)N(c3cccc(-c4ccsc4C(F)(F)F)c3)C2)CC1 (centres unmarked)" unit_spec=% observed_measurement=101
compound="O=C(c1cscn1)N1CCN(C2CC(=O)N(c3cccc(-c4cccnc4Cl)c3)C2)CC1 (centres unmarked)" unit_spec=% observed_measurement=101
compound="COc1ccsc1-c1cccc(N2CC(N3CCN(C(=O)c4nccs4)CC3)CC2=O)c1 (centres unmarked)" unit_spec=% observed_measurement=100
compound=COc1cnc(N2CCc3cc(N4C[C@H](N5CCN(C(=O)c6nccs6)CC5)CC4=O)ccc32)nc1 unit_spec=% observed_measurement=104

Given O=C(c1nccs1)N1CCN(C2CC(=O)N(c3cccc(-c4ccc(F)c(F)c4)c3)C2)CC1 (centres unmarked) , state its recorded inhibition at 10 µM.
101

Given O=C(c1cscn1)N1CCN([C@@H]2CC(=O)N(c3ccc4c(c3)CCN4c3ccc(F)cc3)C2)CC1 , state its recorded inhibition at 10 µM.
100

Given O=C1CC(N2CCN(c3ncccn3)CC2)CN1c1ccc2c(c1)CCN2C(=O)Cc1ccc(F)cc1 (centres unmarked) , state its recorded inhibition at 10 µM.
94
